Source of measurements: patent US20190218277A1

Recorded Kd values for a group of binders are listed next.
target: T1, Recombinant soluble E protein (0.8E-His) from DENV-3 (DENV-3, UniProt P27915 281-673)
T1 construct: also called DENV-3 E protein; DV3
Unit pM implied. Number only.

Previously resolved entries follow.
What the record says about DG_3CH992-SG182/3CL666-SK1 (antibody, V domains shown) VH: QVQLVQSGAEVKKPGASVKVSCKASGYTFTSYYIHWVRQAPGQGLEWMGVINPRGGSRRSAQKFQGRVTMTRDTSTSTVYMELSSLRSEDTAVYYCARGGRALFYDSYTTPFDGGSWWFDPWGQGSLVTVSS VL: DIQLTQSPSSLSASVGDRVTITCQASQEIRKYLNWYQQKPGKAPKLLIYDASNLKTGVPSRFSGSGSGTDFTLTISSLQPEDVATYYCQQFDDLPITFGQGTRLQIKR : Kd is 0.802

What the record says about DG_3CH989-SG182/3CL-SK1 (antibody, V domains shown) VH: QVQLVQSGAEVKKPGASVKVSCKASGYTFTSNYIHWVRQAPGQGLEWMGVINPRGGSRRSAQKFQGRVTMTRDTSTSTVYMELSSLRSEDTAVYYCARGGRALFYDSYTTPFDGGSWWFDPWGQGSLVTVSS VL: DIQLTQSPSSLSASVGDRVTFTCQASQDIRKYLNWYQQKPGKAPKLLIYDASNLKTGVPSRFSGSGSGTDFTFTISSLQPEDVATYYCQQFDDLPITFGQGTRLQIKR : Kd is 0.448

Next:
What the record says about DG_3CH989-SG182/3CL668-SK1 (antibody, V domains shown) VH: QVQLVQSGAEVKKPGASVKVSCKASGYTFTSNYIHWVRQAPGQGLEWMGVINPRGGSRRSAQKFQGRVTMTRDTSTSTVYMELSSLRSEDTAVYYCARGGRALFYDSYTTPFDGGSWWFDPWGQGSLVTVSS VL: DIQLTQSPSSLSASVGDRVTITCQASQDIRKYLNWYQQKPGKAPKLLIYDASNLKTGVPSRFSGSGSGTDFTLTISSLQPEDVATYYCQQFEDLPITFGQGTRLQIKR : Kd is 3.03
